# systemTested: PDK1 (Homo sapiens (Human), UniProt O15530)
# Sequence (O15530 51-359): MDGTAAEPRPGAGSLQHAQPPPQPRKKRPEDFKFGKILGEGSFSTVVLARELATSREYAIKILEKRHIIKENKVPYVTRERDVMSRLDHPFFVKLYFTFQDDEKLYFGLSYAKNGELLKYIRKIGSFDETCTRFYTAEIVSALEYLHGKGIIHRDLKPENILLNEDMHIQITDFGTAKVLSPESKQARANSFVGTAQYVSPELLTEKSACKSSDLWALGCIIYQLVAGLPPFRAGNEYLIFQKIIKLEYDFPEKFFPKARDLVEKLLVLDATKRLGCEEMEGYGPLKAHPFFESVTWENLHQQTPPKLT
# methodDescription: PDK1 kinase assay (coupled PDK1/AKT/FAM-crosstide assay, IMAP fluorescence polarization)
# Format: biochemical
# assayContext: inhibition of PDK1 in vitro
propertyLabel: IC50

> print(dat)
                                 smilesentry            value
 1  Nc1n[nH]c2ncc(-c3ccc(CNc4ncc(C(F)(F)F)cc4C(=O)Nc4ccc(F)cc4)cn3)cc12         < 100 nM
 2  C[C@H](NC(=O)c1cc(C#N)cnc1NCc1ccc(-c2cnc(N)c(C(=O)NCCN(C)C)n2)cc1)c1ccc(F)cc1         < 100 nM
 3  Nc1n[nH]c2ncc(-c3ccc(CNc4ncc(C(F)(F)F)cc4-c4nc5cc(F)ccc5[nH]4)cc3)cc12        > 5000 nM
 4  Nc1n[nH]c2ncc(-c3ccc(CNc4ncc(C(F)(F)F)cc4C(=O)NCc4cccc(Cl)c4)cc3)cc12         < 100 nM
 5  N#Cc1cnc(NCc2ccc(-c3ccc(N)nc3)cc2)c(C(=O)NCc2ccc(F)c(F)c2)n1         < 100 nM
 6  C[C@H](NC(=O)c1cc(C#N)cnc1NCc1ccc(-c2cnc(N)cn2)c(F)c1)c1ccc(F)cc1         < 100 nM
 7  C[C@H](NC(=O)c1cc(C#N)cnc1NCc1ccc(-c2cnc(N)c(CCCN)n2)cc1)c1ccc(F)cc1         < 100 nM
 8  C[C@H](NC(=O)c1cc(C#N)cnc1NCc1cnc(-c2cnc3[nH]ncc3c2)s1)c1ccc(F)cc1         < 100 nM
 9  Nc1n[nH]c2ncc(-c3ccc(CNc4ncc(C(F)(F)F)cc4C(=O)Nc4ccc(Cl)cc4)cc3)cc12         < 100 nM
10  O=C(NCc1ccc(F)c(F)c1)c1cc(C(F)(F)F)cnc1NCc1ccc(-c2cnc(NCCCO)cn2)cc1   100 to 1000 nM
11  Nc1n[nH]c2ncc(-c3ccc(CNc4ncc(C(F)(F)F)cc4C(=O)N4CC(F)(F)C4)cc3)cc12  1000 to 5000 nM
12  Nc1n[nH]c2ncc(-c3ccc(CNc4ncc(C(F)(F)F)cc4-c4nc5cc(F)ccc5o4)cc3)cc12        > 5000 nM
13  C[C@H](NC(=O)c1cc(C2=CCOC2)cnc1NCc1ccc(-c2cn(C)c3ncnc(N)c23)cc1)c1ccc(F)cc1         < 100 nM
14  NCCOc1nc(-c2ccc(CNc3ncc(C(F)(F)F)cc3C(=O)Nc3ccc(F)cc3)cc2)cnc1N         < 100 nM
15  Nc1n[nH]c2ncc(-c3ccc(CNc4ncc(C(F)(F)F)cc4C(=O)Nc4c(F)cc(F)cc4F)cc3)cc12         < 100 nM
